System: UACC-62 melanoma
Test: NCI-60 one-dose screen, 48 h
Details: 10 µM
Description: Growth inhibition of the UACC-62 human tumor cell line is measured as a screen for anti-cancer activity. Cells are grown in 96 well plates and exposed to the test compound for 48 hours. Compounds are tested at a single concentration, which is 10^-5 M for most compounds. The reported endpoint is percent growth (GI% or GIPRCNT), where numbers from 0 - 100% represent growth inhibition, and numbers from -100% - 0 represent cell death. For example, a value of 40 represents 60% growth inhibition. […]
Compounds without any hit were thinned out: in the full panel of roughly 83,000, 20% have a hit. Activity calls are given as the source filed them. The calls were made as follows: active = growth percent below 10; inactive = the rest.
Classes to choose from: active, inactive

Before answering, review these 3 worked examples.
[[record]]
compound = "Nc1ccn(Cc2nnc(CCC(=O)c3nc4ccccc4[nH]3)o2)c(=O)n1"
tested_on = "UACC-62 melanoma"
cat = "inactive"

[[record]]
compound = "O=[N+]([O-])c1cc(Cl)cc(Cl)c1O"
tested_on = "UACC-62 melanoma"
cat = "inactive"

[[record]]
compound = "COc1ccc(-c2nn(-c3cccc(Cl)c3)cc2-c2c(C#N)c(=O)n3[nH]c(-c4ccc(C)cc4)nc3c2C#N)cc1"
tested_on = "UACC-62 melanoma"
cat = "inactive"


Hi, sorry to bother you, what did the test record for c1ccc(/C(=N\Nc2ccc3ccccc3n2)c2ccccn2)cc1 ? active

Hi, sorry to bother you, what did the test record for COc1cc2nc(SCC(=O)Nc3cc(OC)c(OC)c(OC)c3)n(Cc3ccccc3)c(=O)c2cc1OC ? inactive

Hi, sorry to bother you, what did the test record for COc1ccc(/C=C2\CCCC3=C2NC(N)=NC3c2ccc(OC)c(OC)c2)cc1OC (configuration not stated) ? inactive

----------
System: OVCAR-4 ovarian
Assay: NCI-60 one-dose screen, 48 h
Conditions: 10 µM
The panel holds about 83,000 compounds, 20% with a hit somewhere; the sample as a whole holds those more often. Activity calls are given as the source filed them. The calls were made as follows: active = growth percent below 10; inactive = the rest.
Classes to choose from: active, inactive

Before answering, review these 3 worked examples.
[[record]]
molecule = "COc1cc(C2CC(c3ccccc3)=NN2C(C)=O)cc(OC)c1OC (stereo not given)"
cat = "inactive"

[[record]]
molecule = "CCOC(=O)CC(S(=O)(=O)c1ccccc1)S(=O)(=O)c1ccccc1"
cat = "inactive"

[[record]]
molecule = "COc1ccccc1-n1c(-c2csc(NC(C)=O)n2)n[nH]c1=S"
cat = "inactive"


Hi, sorry to bother you, what did the test record for Cc1ccc(C(SCC(N)C(=O)O)(c2ccc(C)cc2)c2ccc(C)cc2)cc1 (stereo not given) ? inactive

Hi, sorry to bother you, what did the test record for Cc1cn(-c2cc(F)cc(NC(=O)c3ccc(C)c(Nc4nccc(-c5cccnc5)n4)c3)c2)cn1 ? active

Hi, sorry to bother you, what did the test record for C[C@H]1[C@H](OC(=O)CCC(=O)O)O[C@@H]2O[C@]3(C)CC[C@H]4[C@H](C)CC[C@@H]1[C@@]24OO3 ? inactive

----------
Tested on: A498 renal
Assay: NCI-60 one-dose screen, 48 h
Conditions: 10 µM
This is part of a sample that, as a whole, favours compounds with a hit. Of some 83,000 tested, about 20% had one in any assay. Calls of active or inactive are those of the source. The calls were made as follows: active = growth percent below 10; inactive = the rest.
Classes to choose from: 1 (active), -1 (inactive)

Before answering, review these 2 worked examples.
[[record]]
compound = "CCCCN1C(=O)CC(SC2CC(=O)N(CCCC)C2=O)C1=O (stereo unspecified)"
cat = -1

[[record]]
compound = "O=C(O)c1ccc(-n2cc(CNc3ccc(Cl)cc3)c(-c3ccccc3)n2)cc1"
cat = -1


Hi, sorry to bother you, what did the test record for O=C(CC(CC(=O)c1ccccc1)c1ccccc1O)c1ccccc1 ? -1

Hi, sorry to bother you, what did the test record for Cc1ccc(Cl)cc1NC(=O)CCl ? -1

Hi, sorry to bother you, what did the test record for CN1CCN(C2=Nc3ccccc3Oc3ccc(Cl)cc32)CC1 ? -1

Hi, sorry to bother you, what did the test record for COc1cc(C2C(C#N)=C(N)Oc3cc(O)ccc32)cc(OC)c1OC (stereo unspecified) ? 1

Hi, sorry to bother you, what did the test record for CCC(=O)OC1CCC2C3CCC(=O)OC3C(C)(CCC(=O)O)CC12C (stereo unspecified) ? 1
